Origin of the recorded values: the supplement of paper PMC8497498

# Tested on: Plasmodium vivax liver stage (primary human hepatocyte culture)
# setupConditions: P. vivax isolate: Pv914; hepatocyte lot: BGW; assay mode: Prophylactic, 6-day
Counter-ions that a name gives are not always drawn.
Assign classes using reported EC50 schizont net growth area values and the ranges 0 (below 40 nM), 1 (40 nM to below 600 nM), 2 (600 nM or more), please.

INSERT INTO results (compound, label) VALUES
  ('Nc1ncc(-c2ccc(C(=O)N3CCNCC3)cc2)nc1-c1ccc(C(F)(F)F)cc1', 0),
  ('Cc1c(Oc2cnc(C(=O)N3CC(C)(O)C3)cn2)ccc2c1B(O)OC2', 2),
  ('CCc1nc(N)nc(N)c1OCCCOc1ccccc1CCC(=O)O', 1),
  ('CCC[C@@H]1C[C@@H](C(=O)N[C@@H]([C@H]2O[C@H](SC)[C@H](O)[C@@H](O)[C@H]2O)[C@H](C)Cl)N(C)C1 [Clindamycin hydrochloride]', 0),
  ('Cc1nc(Nc2ncc(N3CCN(C)C(C)C3)c(Nc3cc(C)n(C)n3)n2)cc(C2CC2)c1F (stereo not drawn)', 2),
  ('COc1ccc2nc3cc(Cl)ccc3c(Nc3cc(CN4CCCC4)c(O)c(CN4CCCC4)c3)c2n1', 2),
  ('CCN(CC)CCCC(C)Nc1ccnc2cc(Cl)ccc12 (stereo not drawn) [Chloroquine Diphosphate]', 2),
  ('CS(=O)(=O)c1ccc(-c2cnc(N)c(-c3ccc(C(F)(F)F)nc3)n2)cc1', 0),
  ('C=C(NC(=O)C(=C)NC(=O)c1csc(C2=NC3c4csc(n4)C4NC(=O)c5csc(n5)C(C(C)(O)C(C)O)NC(=O)C5CSC(=N5)C(=CC)NC(=O)C(C(C)O)NC(=O)c5csc(n5)C3(CC2)NC(=O)C(C)NC(=O)C(=C)NC(=O)C(C)NC(=O)C(C(C)CC)NC2C=Cc3c(C(C)O)cc(nc3C2O)C(=O)OC4C)n1)C(N)=O (stereo not drawn)', 2),
  ('COc1cc2[nH]c(C)c(-c3ccc(Oc4ccc(OC(F)(F)F)cc4)cc3)c(=O)c2cc1Cl', 1),
  ('N=C(N)c1ccc(OCCCCCOc2ccc(C(=N)N)cc2)cc1 [Pentamidine isethionate]', 1),
  ('CN(Cc1cnc2nc(N)nc(N)c2n1)c1ccc(C(=O)N[C@@H](CCC(=O)O)C(=O)O)cc1 (racemic) [Methotrexate (+/-)]', 1);
